experiment: Single-dose pharmacokinetics in dogs (plasma, UHPLC/MS/MS); format: in vivo, Beagle dogs; conditions: female, Beagle, dog, plasma, po, 49.6 mg/kg
measurementName: Cmax (ng/mL)
Give the quantity in ng/mL, number only.

Enquiry: For the compound `C[C@@H]1O[C@@H](O[C@H]2[C@H](Oc3cc(O)c4c(c3)O[C@H](c3ccc(O)cc3)CC4=O)O[C@H](CO)[C@@H](O)[C@@H]2O)[C@H](O)[C@H](O)[C@H]1O` , what Cmax is on record?
Return: 157

----------
assay: Single-dose pharmacokinetics in dogs (plasma, UHPLC/MS/MS); format: in vivo, Beagle dogs; conditions: both sexes, beagle, dog, plasma, po, 49.6 mg/kg
measurementName: half-life (h)
Give the quantity in h, number only.

Enquiry: For the compound `C[C@@H]1O[C@@H](O[C@H]2[C@H](Oc3cc(O)c4c(c3)O[C@H](c3ccc(O)cc3)CC4=O)O[C@H](CO)[C@@H](O)[C@@H]2O)[C@H](O)[C@H](O)[C@H]1O` , what half-life is on record?
Return: 1.31

----------
experiment: Single-dose pharmacokinetics in rats (plasma, UHPLC/MS/MS); format: in vivo, Sprague Dawley rats; conditions: both sexes, Sprague Dawley, rat, plasma, po, 42 mg/kg; read-out: Cmax
measurementName: Cmax (ng/mL)
Give the quantity in ng/mL, number only.

Enquiry: For the molecule `C[C@@H]1O[C@@H](O[C@H]2[C@H](Oc3cc(O)c4c(c3)O[C@H](c3ccc(O)cc3)CC4=O)O[C@H](CO)[C@@H](O)[C@@H]2O)[C@H](O)[C@H](O)[C@H]1O` , what Cmax is on record?
Return: 52.6

----------
experiment: Single ascending dose and food-effect pharmacokinetics of naringin tablets in healthy humans; assay type: in vivo, human; details: both sexes, human, plasma, po, 160 mg, naringin 160 mg (high-fat diet) p.o. single dose, human; read-out: MRT0-t
measurementName: MRT last (h)
Give the quantity in h, number only.

Enquiry: For the compound `C[C@@H]1O[C@@H](O[C@H]2[C@H](Oc3cc(O)c4c(c3)O[C@H](c3ccc(O)cc3)CC4=O)O[C@H](CO)[C@@H](O)[C@@H]2O)[C@H](O)[C@H](O)[C@H]1O` , what MRT last is on record?
Return: 3.45

----------
Experiment: Single-dose pharmacokinetics in rats (plasma, UHPLC/MS/MS)
Assay type: in vivo, Sprague Dawley rats
Settings: female, Sprague Dawley, rat, plasma, iv, 42 mg/kg
Excerpt: Sixty healthy adult Sprague Dawley rats (180-220 g, half male and female) were purchased from the Guangdong Medical Laboratory Animal Center (Guangzhou, Guangdong, China). Thirty Beagle dogs (10-14 kg, half male and female) were purchased from the […] […] The compounds were detected by multiple reaction monitoring in the negative ion electrospray mode. […] All pharmacokinetic and excretion parameters were expressed as mean ± standard deviation (SD). […]
measurementName: AUC(0-t) (ng·h/mL)
Give the quantity in ng·h/mL, number only.

Enquiry: For the compound `C[C@@H]1O[C@@H](O[C@H]2[C@H](Oc3cc(O)c4c(c3)O[C@H](c3ccc(O)cc3)CC4=O)O[C@H](CO)[C@@H](O)[C@@H]2O)[C@H](O)[C@H](O)[C@H]1O` , what AUC(0-t) is on record?
Return: 14800

----------
assay: Single ascending dose and food-effect pharmacokinetics of naringin tablets in healthy humans; assay type: in vivo, human; settings: male, human, plasma, po, 80 mg, naringin 80 mg p.o. single dose
measurementName: AUC(0-inf) (µg·h/mL)
Give the quantity in µg·h/mL, number only.

Enquiry: For the compound `C[C@@H]1O[C@@H](O[C@H]2[C@H](Oc3cc(O)c4c(c3)O[C@H](c3ccc(O)cc3)CC4=O)O[C@H](CO)[C@@H](O)[C@@H]2O)[C@H](O)[C@H](O)[C@H]1O` , what AUC(0-inf) is on record?
Return: 0.0132

----------
assay: Single-dose pharmacokinetics in rats (plasma, UHPLC/MS/MS); format: in vivo, Sprague Dawley rats; settings: both sexes, Sprague Dawley, rat, plasma, iv, 42 mg/kg; read-out: Vd
Vd overview
Give the quantity in L/kg, number only.

Enquiry: For the compound O=C1C[C@@H](c2ccc(O)cc2)Oc2cc(O)cc(O)c21 [naringenin, Naringenin] , what Vd is on record?
Return: 88.3

Enquiry: For the compound C[C@@H]1O[C@@H](O[C@H]2[C@H](Oc3cc(O)c4c(c3)O[C@H](c3ccc(O)cc3)CC4=O)O[C@H](CO)[C@@H](O)[C@@H]2O)[C@H](O)[C@H](O)[C@H]1O [naringin, Naringin] , what Vd is on record?
Return: 8.29

----------
assay: Single-dose pharmacokinetics in dogs (plasma, UHPLC/MS/MS); format: in vivo, Beagle dogs; conditions: female, Beagle, dog, plasma, po, 12.4 mg/kg
measurementName: half-life
Please state the number and follow it with the unit.

Enquiry: For the compound `C[C@@H]1O[C@@H](O[C@H]2[C@H](Oc3cc(O)c4c(c3)O[C@H](c3ccc(O)cc3)CC4=O)O[C@H](CO)[C@@H](O)[C@@H]2O)[C@H](O)[C@H](O)[C@H]1O` , what half-life is on record?
Return: 1.42 h

----------
Test: Single ascending dose and food-effect pharmacokinetics of naringin tablets in healthy humans
Type: in vivo, human
Settings: female, human, plasma, po, 80 mg, naringin 80 mg p.o. single dose
Procedure: Participants were healthy males and females, 18 to 40 years old, ≥50 kg weight, 19 to 25 kg m^2 body mass index. […] The optimal volume and activity in unit volume of enzyme solution [0.2 M acetic acid/water solution: 0.2 M ammonium acetate/water solution, 15:35 (v/v)] were determined through a pretest of the enzyme (rat plasma, 10 μl, 10 U μl^-1; dog plasma, 10 μl, 10 U μl^-1; human plasma, 20 μl, 20 U μl^-1; human urine, 10 μl, 10 U μl^-1). […]
measurementName: Cmax (ng/mL)
Give the quantity in ng/mL, number only.

Enquiry: For the compound C[C@@H]1O[C@@H](O[C@H]2[C@H](Oc3cc(O)c4c(c3)O[C@H](c3ccc(O)cc3)CC4=O)O[C@H](CO)[C@@H](O)[C@@H]2O)[C@H](O)[C@H](O)[C@H]1O [naringin, Naringin] , what Cmax is on record?
Return: 3.3

----------
Assay: Single ascending dose and food-effect pharmacokinetics of naringin tablets in healthy humans
Type: in vivo, human
Conditions: both sexes, human, plasma, po, 480 mg, naringin 480 mg p.o. single dose
Procedure: Participants were healthy males and females, 18 to 40 years old, ≥50 kg weight, 19 to 25 kg m^2 body mass index. […] The optimal volume and activity in unit volume of enzyme solution [0.2 M acetic acid/water solution: 0.2 M ammonium acetate/water solution, 15:35 (v/v)] were determined through a pretest of the enzyme (rat plasma, 10 μl, 10 U μl^-1; dog plasma, 10 μl, 10 U μl^-1; human plasma, 20 μl, 20 U μl^-1; human urine, 10 μl, 10 U μl^-1). […]
measurementName: AUC(0-t) (µg·h/mL)
Give the quantity in µg·h/mL, number only.

Enquiry: For the molecule C[C@@H]1O[C@@H](O[C@H]2[C@H](Oc3cc(O)c4c(c3)O[C@H](c3ccc(O)cc3)CC4=O)O[C@H](CO)[C@@H](O)[C@@H]2O)[C@H](O)[C@H](O)[C@H]1O [naringin, Naringin] , what AUC(0-t) is on record?
Return: 0.0194

----------
experiment: Single ascending dose and food-effect pharmacokinetics of naringin tablets in healthy humans; format: in vivo, human; conditions: both sexes, human, plasma, po, 160 mg, naringin 160 mg (high-fat diet) p.o. single dose
measurementName: half-life (h)
Give the quantity in h, number only.

Enquiry: For the compound `C[C@@H]1O[C@@H](O[C@H]2[C@H](Oc3cc(O)c4c(c3)O[C@H](c3ccc(O)cc3)CC4=O)O[C@H](CO)[C@@H](O)[C@@H]2O)[C@H](O)[C@H](O)[C@H]1O` , what half-life is on record?
Return: 3.11

----------
Test: Single ascending dose and food-effect pharmacokinetics of naringin tablets in healthy humans
Assay type: in vivo, human
Settings: both sexes, human, plasma, po, 480 mg, naringin 480 mg p.o. single dose, human; read-out: MRT0-∞
Description: Participants were healthy males and females, 18 to 40 years old, ≥50 kg weight, 19 to 25 kg m^2 body mass index. […] The optimal volume and activity in unit volume of enzyme solution [0.2 M acetic acid/water solution: 0.2 M ammonium acetate/water solution, 15:35 (v/v)] were determined through a pretest of the enzyme (rat plasma, 10 μl, 10 U μl^-1; dog plasma, 10 μl, 10 U μl^-1; human plasma, 20 μl, 20 U μl^-1; human urine, 10 μl, 10 U μl^-1). […]
measurementName: MRT inf (h)
Give the quantity in h, number only.

Enquiry: For the molecule `C[C@@H]1O[C@@H](O[C@H]2[C@H](Oc3cc(O)c4c(c3)O[C@H](c3ccc(O)cc3)CC4=O)O[C@H](CO)[C@@H](O)[C@@H]2O)[C@H](O)[C@H](O)[C@H]1O` , what MRT inf is on record?
Return: 3.86
